- assayName: RAM signaling pathway blockade in yeast – S. cerevisiae, Pdr1DBD-CYC8 efflux-inhibited sensitized strain, primary screen (AID 1298);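 also: 0% = DMSO untreated cells without growth and 100% = 10 µM 1-NA-PP1 full growth; higher means more yeast growth rescued from 5-FOA killing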
- experimentalConditions: S. cerevisiae cbk1-as DSE1-URA3 strain, 5-FOA growth OD615, 2 d; at 50 µM; stronger effect = higher value
assayEndpoint: RAM network inhibition (%)
Respond with the bare value in %.

Entry under test: CCc1ccccc1S(=O)(=O)Cc1ccc(C(=O)NCc2ccc3c(c2)OCO3)o1 . Its RAM network inhibition was 7.83

Entry under test: O=C(NCCCN1CCc2ccccc2C1)C1CCN(c2nnc(-n3cccc3)s2)CC1 . Its RAM network inhibition was 5.45

Entry under test: O=C(NCc1ccccn1)C1CC(=O)N(C2CCCC2)C1 (stereo unspecified) . Its RAM network inhibition was 2.33

Entry under test: COc1ccc(C2CC(c3ccc(F)cc3)Nc3nc(N)nn32)cc1 (stereo unspecified) . Its RAM network inhibition was 6.59

Entry under test: COCCSc1nc2c(c(=O)[nH]c(=O)n2C)n1Cc1cccc(C)c1 . Its RAM network inhibition was 4.44

Entry under test: CCOC(=O)CN1CC23C=CC(O2)C(C(=O)O)C3C1=O (stereo unspecified) . Its RAM network inhibition was 4

Entry under test: COCCn1c(=O)[nH]c2cc(C(=O)NCCN3CCN(c4ccccc4F)CC3)ccc2c1=O . Its RAM network inhibition was 9.5

Entry under test: O=C(c1ccco1)c1n[nH]nc1-c1ccccc1 . Its RAM network inhibition was 1.94

Entry under test: Clc1ccc(-n2ncc3c(N4CCCCCC4)ncnc32)cc1 . Its RAM network inhibition was 8.42

Entry under test: CCc1nnc(NC(=O)CSc2nccn2-c2cccc(C)c2)s1 . Its RAM network inhibition was 5.11

Entry under test: CC(=O)NC(C)c1nc2ccccc2n1Cc1ccccc1F (stereo unspecified) . Its RAM network inhibition was 5.71

Entry under test: NS(=O)(=O)c1ccc(NC(=O)COC(=O)CCNC(=O)NC23CC4CC(CC(C4)C2)C3)cc1 . Its RAM network inhibition was 3.28

Entry under test: CN1CCN(c2nc3c(c(=O)n(C)c(=O)n3C)n2CCSc2nc3ccccc3s2)CC1 . Its RAM network inhibition was 3.29

Entry under test: O=C(CSc1nnc(-c2cccs2)o1)N1CCCCC1 . Its RAM network inhibition was 1.38

Entry under test: CCc1cc(=O)oc2cc(OCC(=O)OC)c(Cl)cc12 . Its RAM network inhibition was 4.51

Entry under test: CC(=O)c1ccc(OCC(O)CN2CCN(Cc3ccccc3)CC2)cc1 (stereo unspecified) . Its RAM network inhibition was 0.94

====

Provide the reported growth inhibition of each item.
- assayName: Restrictive medium S. cerevisiae growth inhibition, OD615, pilot screen of yeast lifespan reduction project, restrictive growth control (AID 706);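 also: modified DeaD lifespan yeast strain shifted to restrictive glucose medium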
- experimentalConditions: OD615, 48 h, at 10 µM, stronger effect = higher value
Respond with the bare value in %.

Entry under test: C=CCn1c(C(C)NC(=O)C(C)(C)C)nc2ccccc21 (centres undefined) . Its growth inhibition was -11.3

Entry under test: COc1ccc(N2C(=O)C3CCCN3C2c2ccc(C)cc2)cc1 (centres undefined) . Its growth inhibition was 2.53

Entry under test: CCCCCCN1C(=O)C(O)=C(C(C)=O)C1c1ccc(Cl)cc1 (centres undefined) . Its growth inhibition was 7.25

Entry under test: CSC1=NCCN1C(=O)c1ccc(Br)o1 . Its growth inhibition was -7.89

Entry under test: O=C(CS(=O)(=O)c1c[nH]c2ccccc12)Nc1ccc2c(c1)OCCO2 . Its growth inhibition was -1.07

Entry under test: Cc1ccc2oc(=O)c3cnn(CC(=O)NC4CCCCC4C)c3c2c1 (centres undefined) . Its growth inhibition was -9.46

Entry under test: CCc1cc(C(=O)Nc2ccccc2)cs1 . Its growth inhibition was 4.65

Entry under test: CCNC(=O)CN(C1CCCCC1)S(=O)(=O)c1ccc(F)cc1 . Its growth inhibition was -2.66

Entry under test: CCN(c1ccccc1)c1cc(C)nc2nc(C)nn12 . Its growth inhibition was -3.25

Entry under test: Cc1ccc(CNC(=O)CCCNS(=O)(=O)c2cccc3nonc23)cc1 . Its growth inhibition was 0.525

Entry under test: O=C(NCCCc1ccccc1)c1ccncc1 . Its growth inhibition was 0.81

Entry under test: COc1ccccc1CCNC(=O)c1cnn2c(C(F)F)cc(C)nc12 . Its growth inhibition was 11.3

Entry under test: NS(=O)(=O)c1ccc(NC(=O)COC(=O)CCNC(=O)NC23CC4CC(CC(C4)C2)C3)cc1 . Its growth inhibition was -4.2

Entry under test: CCCC(=O)NCCCc1nc2ccccc2n1CC . Its growth inhibition was 0.985
